All figures here come from patent US20250064909A1.

The entries below are paired with their reported kon.
# assay.system: T1, recombinant human TIGIT (Sino Biological) (human, UniProt Q495A1 22-138)
# T1 construct: Bought protein; NP_776160.2; also called human TIGIT antigen; hTIGIT
# T1 sequence: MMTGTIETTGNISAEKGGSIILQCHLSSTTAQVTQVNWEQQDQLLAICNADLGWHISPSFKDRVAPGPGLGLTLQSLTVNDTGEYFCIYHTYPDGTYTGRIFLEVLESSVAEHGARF
# assay.procedure: SPR (Biacore T200), single cycle kinetics, IgG from supernatant captured on anti-human chip, TIGIT as analyte, 1:1 fit;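 note: measured at 25 °C in HBS-P+ with 1% BSA, four ascending TIGIT concentrations, 210 s association per step, one final 900 s dissociation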
# value in M⁻¹ s⁻¹; strip the unit string

7A6 VH2/Vκ5 humanized antibody (human IgG1, kappa) (antibody, V domains shown, Tested as IgG in supernatant of transiently transfected HEK293 EBNA cells) VH: DVQLQESGPGLVKPSQTLSLTCTVTGYSITSDYAWNWIRQPPGKGLEWMGYISYSGSARYNPSLKSRITISRDTSKNQFSLKLSSVTAEDTATYYCARKGYPAYFAYWGQGTLVTVSS VL: DIQMTQSPSSLSASVGDRVSITCKASQDVSTAVAWYQQKPGQAPRLLIYSASYRYTGVPDRFSGSGSGTDFTLTISSLQPEDFATYYCQHHYSTPYTFGQGTKLEIKR ... 1.72e+06
7A6 VH4/Vκ5 humanized antibody (human IgG1, kappa) (antibody, V domains shown, Tested as IgG in supernatant of transiently transfected HEK293 EBNA cells) VH: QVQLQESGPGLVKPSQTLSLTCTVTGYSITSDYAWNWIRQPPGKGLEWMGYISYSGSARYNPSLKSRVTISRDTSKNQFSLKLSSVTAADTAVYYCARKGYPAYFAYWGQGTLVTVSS VL: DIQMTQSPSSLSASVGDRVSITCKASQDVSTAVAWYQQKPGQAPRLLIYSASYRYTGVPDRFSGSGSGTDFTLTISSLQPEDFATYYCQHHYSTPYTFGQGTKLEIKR ... 1.76e+06
7A6 VH1/Vκ3 humanized antibody (human IgG1, kappa) (antibody, V domains shown, Tested as IgG in supernatant of transiently transfected HEK293 EBNA cells) VH: DVQLQESGPGLVKPSQTLSLTCTVTGYSITSDYAWNWIRQPPGKGLEWMGYISYSGSARYNPSLKSRITISRDTSMNQFSLKLNSVTAEDTATYYCARKGYPAYFAYWGQGTLVTVSS VL: DIQMTQSPSSLSASVGDRVSITCKASQDVSTAVAWYQQKPGQAPRLLIYSASYRYTGVPDRFSGSGSGTDFTLTISSLQAEDVAVYYCQHHYSTPYTFGQGTKLEIKR ... 1.89e+06
anti-TIGIT 7A6 VH3/Vk5 humanized antibody (human IgG1, kappa) (antibody, V domains shown, also called VH3Vκ5; 7A6 VH3/Vk5-IgG1) VH: QVQLQESGPGLVKPSQTLSLTCTVTGYSITSDYAWNWIRQPPGKGLEWMGYISYSGSARYNPSLKSRVTISRDTSKNQFSLKLSSVTAEDTATYYCARKGYPAYFAYWGQGTLVTVSS VL: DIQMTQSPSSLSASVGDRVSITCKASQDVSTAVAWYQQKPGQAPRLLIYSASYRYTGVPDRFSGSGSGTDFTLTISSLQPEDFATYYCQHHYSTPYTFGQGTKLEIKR ... 1.85e+06
7A6 VH0/Vκ0 chimeric antibody (human IgG1, kappa) (antibody, V domains shown, Mouse 7A6 variable regions on human IgG1/kappa constant regions; also called VH0/Vk0; 7A6 VH0Vk0) VH: DVQLQESGPGLVKPSQSLSLTCTVTGYSITSDYAWNWIRQFPGNKLEWMGYISYSGSARYNPSLKSRISITRDTSMNQFFLQLNSVTAEDTATYYCARKGYPAYFAYWGQGTLVTVSS VL: DIVMTQSHKFMSTSVGDRVSISCKASQDVSTAVAWYQQKPGQSPELLIYSASYRYTGVPDRFTGSGSGTDFTFTISSVQAEDLAVYYCQHHYSTPYTFGGGTKLEMKR ... 2.46e+06
7A6 VH2/Vκ1 humanized antibody (human IgG1, kappa) (antibody, V domains shown, Tested as IgG in supernatant of transiently transfected HEK293 EBNA cells) VH: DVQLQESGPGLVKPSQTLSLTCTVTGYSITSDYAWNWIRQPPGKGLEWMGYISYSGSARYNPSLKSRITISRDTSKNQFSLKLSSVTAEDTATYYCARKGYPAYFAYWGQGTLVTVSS VL: DIVMTQSHSFLSASVGDRVSITCKASQDVSTAVAWYQQKPGQAPELLIYSASYRYTGVPDRFTGSGSGTDFTLTISSLQAEDVAVYYCQHHYSTPYTFGQGTKLEMKR ... 2.36e+06

Please turn your attention to the following entry.
# input Returns the measured kon for the input binder. Input: 7A6 VH5/Vκ4 humanized antibody (human IgG1, kappa) (antibody, V domains shown, Tested as IgG in supernatant of transiently transfected HEK293 EBNA cells) VH: QVQLQESGPGLVKPSQTLSLTCTVTGYSITSDYAWNWIRQPPGKGLEWMGYISYSGSARYNPSLKSRVTISVDTSKNQFSLKLSSVTAADTAVYYCARKGYPAYFAYWGQGTLVTVSS VL: DIQMTQSPSSLSASVGDRVTITCRASQDVSTAVAWYQQKPGQAPRLLIYSASYRYTGVPDRFSGSGSGTDFTLTISSLQAEDVAVYYCQHHYSTPYTFGQGTKLEIKR
# output 1.19e+06
